# Lookup of reported TGI keyed by entry
tested on: SK-MEL-5 melanoma; experiment: NCI tumour cell line growth inhibition, 48 h
All answers are understood in µM, so give the number only.

TGI measured on O=C(NC1CCN(Cc2ccccc2)CC1)c1cc(-c2ccncc2)nc2ccc(Cl)cc12 = 21.7

For reference, reported TGI for Cc1ccc2c3c1O[C@H]1c4[nH]c5ccccc5c4C[C@@]4(O)[C@@H](C2)N(C)CC[C@]314 stands at 28.2

get_value(item= O=C(O)c1ccccc1NC(c1ccccc1)c1ccc2cccnc2c1O (stereo not drawn) , readout=TGI) returns 24.5

// O=c1c2cc(-c3ccccc3)sc2nc2n1N=C(c1ccccc1)CS2 : TGI value = 79.3

# molecule CN(C)c1ccc(/C=c2/c3ccccc3n3c2c2ccccc2[n+]3C)cc1 ; its TGI = 0.659

Reported TGI of COc1ccc(C2CC(c3cc(OC)c(OC)c(OC)c3)=NO2)cc1OCCCCOc1cc2c(cc1OC)C(=O)N1CCC[C@H]1C=N2 (stereo partly drawn) : 2.79

Quick note, TGI for COc1ccc(C(=O)c2cc(OC)c(OC)c(OC)c2)cc1 landed at 26.3

response.value for O=C1c2ccccc2-c2c1c1ccccc1c(=O)n2CCCCNCCCn1c2c(c3ccccc3c1=O)C(=O)c1ccccc1-2 (field: TGI) = 1.49

// TGI lookup, molecule = Nc1ccc2c(c1)C(=O)C(=O)c1c-2nc2ccccn12 , result: 0.329

For FC(F)(F)Oc1cccc(-c2cnc3ccc(-c4ccncc4)nn23)c1 the molecule record lists TGI as 3.23

----------
test system: SNB-75 CNS; assay: NCI tumour cell line growth inhibition, 48 h
OBSERVABLE: TGI (µM)
All answers are understood in µM, so give the number only.

# STRUCTURE AS SMILES, OBSERVABLE, VAL
measured = [
    ("N=C(N)c1ccc(OCc2cccc(COc3ccc(C(=N)N)cc3)c2)cc1", "TGI", 31.2),
]

Next up:
Looking up COc1cc(NS(C)(=O)=O)ccc1Nc1c2ccc([N+](=O)[O-])cc2nc2c(C)cccc12 , I found its TGI recorded as 7.48

----------
test system: SK-MEL-5 melanoma; experiment: NCI tumour cell line growth inhibition, 48 h; in the data active = GI50 below about 0.43 µM; inactive = the rest
// allowed return values: Yes for active, No for inactive

# COMPOUND, LABEL
measured = [
    ("CC1(C)N=C(N)N=C(N)N1c1cccc(CCCCc2cccc(S(=O)(=O)F)c2)c1", "No"),
]

Attention now turns to another entry.
Q: Query: recorded result category for Cc1cccc(NC(=O)CCc2ccc(N3C(N)=NC(N)=NC3(C)C)cc2)c1 in this test
Ans: No

----------
system: SN12C renal; assay: NCI tumour cell line growth inhibition, 48 h
OBSERVABLE: TGI (µM)
Entry rule: numbers only, all in µM.

Examples from the recorded data:
# COMPOUND, TGI / µM
rows = [
    ("O=C(Nc1nnc(-c2ccccc2)o1)C(SC(=S)N1CCCCC1)c1ccccc1 (centres undefined)", 42),
    ("CCN(CC)CCOCC[C@H]1CC[C@H]2[C@@H]3[C@H](C)Cc4cc(OS(N)(=O)=O)ccc4[C@H]3CC[C@]12C", 2.86),
    ("Cn1cc(-c2ccc3c(Nc4cccc(NC(=O)Nc5cccc(F)c5)c4)ncnc3c2)cn1", 4.29),
]

Read the next record carefully.
// field: TGI; key: COc1ccc(Oc2cccc(/C=C3/C(=O)Nc4ccccc43)c2)cc1 ; value = 22.8
